# Test system: MIA-PaCa-2 (Pancreatic Carcinoma)
# protocolDescription: combination Emax (second highest fraction inhibited in the dose matrix, 72 h); higher = more inhibition; extreme values may be limits of the assay
property: combination Emax
Give only the figure.

The cases that follow already have their combination Emax on record.
compound	experimentalResult
COc1nnc2ccc(N3CCC(c4ccc(OCCN5CCN(C)C(=O)[C@H]5C)cc4)CC3)nn12 [AZD5153] + C=CCn1c(=O)c2cnc(Nc3ccc(N4CCN(C)CC4)cc3)nc2n1-c1cccc(C(C)(C)O)n1 [AZD1775] (first compound max 1 µM, partner max 1 µM)	0.882
CN(CCO)CC[C@H](CSc1ccccc1)Nc1ccc(S(=O)(=O)NC(=O)c2ccc(N3CCC([C@@H](O)c4ccccc4-c4ccc(Cl)cc4)CC3)cc2)cc1S(=O)(=O)C(F)(F)F [AZD4320] + CS(=O)(=O)CCNCc1ccc(-c2ccc3ncnc(Nc4ccc(OCc5cccc(F)c5)c(Cl)c4)c3c2)o1 [Lapatinib] (first compound max 1 µM, 7x7, partner max 10 µM)	0.832

Consider the additional compound presented here.
# combination Emax of Cc1nc(-c2cn3c(n2)-c2ccc(-c4cnn(C(C)(C)C(N)=O)c4)cc2OCC3)n(C(C)C)n1 [Taselisib] + O=C(Nc1ccc2[nH]nc(-c3ccncc3)c2c1)[C@@H]1CCN(CC(=O)N2CCN(c3ccc(-c4ncccn4)cc3)CC2)C1 [SCH772984] (first compound max 10 µM, 7x7, partner max 5 µM) = 0.797

----------
# Tested on: ACHN (Kidney Carcinoma)
# protocolDescription: combination Emax (second highest fraction inhibited in the dose matrix, 72 h); higher = more inhibition; extreme values may be limits of the assay
property: combination Emax
Give only the figure.

The cases that follow already have their combination Emax on record.
molecule	combination Emax
NC1(C(=O)N[C@@H](CCO)c2ccc(Cl)cc2)CCN(c2ncnc3[nH]ccc23)CC1 [Capivasertib] + C[C@@H]1COCCN1C2=NC(=NC(=C2)C3(CC3)[S@](=N)(=O)C)C4=C5C=CNC5=NC=C4 [AZD6738] (first compound max 10 µM, 7x7, partner max 10 µM)	0.856
COc1nnc2ccc(N3CCC(c4ccc(OCCN5CCN(C)C(=O)[C@H]5C)cc4)CC3)nn12 [AZD5153] + CCN(CCO)CCCOc1ccc2c(Nc3cc(CC(=O)Nc4cccc(F)c4)[nH]n3)ncnc2c1 [AZD2811] (first compound max 1 µM, 7x7, partner max 1 µM)	0.562
C[C@@H]1COCCN1c1cc(C2([S@](C)(=N)=O)CC2)nc(-c2ccnc3[nH]ccc23)n1 [AZD6738] + O=C(c1cc(Cc2n[nH]c(=O)c3ccccc23)ccc1F)N1CCN(C(=O)C2CC2)CC1 [Olaparib] (first compound max 10 µM, 7x7, partner max 10 µM)	0.988
Cc1c2c(nn1C)CSCc1cc(n(C)n1)CSc1cc(c3ccccc3c1)OCCCc1c(C(=O)O)n(C)c3c-2c(Cl)ccc13 [AZD5991] + CS(=O)(=O)CCNCc1ccc(-c2ccc3ncnc(Nc4ccc(OCc5cccc(F)c5)c(Cl)c4)c3c2)o1 [Lapatinib] (first compound max 1 µM, 7x7, partner max 10 µM)	0.481
Cc1c2c(nn1C)CSCc1cc(n(C)n1)CSc1cc(c3ccccc3c1)OCCCc1c(C(=O)O)n(C)c3c-2c(Cl)ccc13 [AZD5991] + Nc1ccn([C@@H]2O[C@H](CO)[C@@H](O)C2(F)F)c(=O)n1 [Gemcitabine] (first compound max 1 µM, 7x7, partner max 0.3 µM)	0.744

# combination Emax of COc1nnc2ccc(N3CCC(c4ccc(OCCN5CCN(C)C(=O)[C@H]5C)cc4)CC3)nn12 [AZD5153] + Cc1c2c(nn1C)CSCc1cc(n(C)n1)CSc1cc(c3ccccc3c1)OCCCc1c(C(=O)O)n(C)c3c-2c(Cl)ccc13 [AZD5991] (first compound max 1 µM, 7x7, partner max 1 µM) = 0.537

# combination Emax of Cc1cc2ncnn2cc1Nc1ncc2c(n1)n(C1CCOCC1)c(=O)n2C [AZD7648] + CN(C)CCCOc1ccc(-c2ccc3ncc4c(c3c2)n(C2CCOCC2)c(=O)n4C)cn1 [AZD0156] (first compound max 10 µM, 7x7, partner max 1 µM) = 0.293

----------
Reported Bliss excess values for a set of molecules
# System: EoL-1-cell (Acute Myeloid Leukemia);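 note: after 72 h of two-drug dosing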
# protocolDescription: Bliss excess, mean over the matrix (fraction); higher = more synergy
Give only the figure.

molecule	experimentalResult
CN(CCO)CC[C@H](CSc1ccccc1)Nc1ccc(S(=O)(=O)NC(=O)c2ccc(N3CCC([C@@H](O)c4ccccc4-c4ccc(Cl)cc4)CC3)cc2)cc1S(=O)(=O)C(F)(F)F [AZD4320] + Nc1ccn([C@@H]2O[C@H](CO)[C@@H](O)C2(F)F)c(=O)n1 [Gemcitabine] (first compound max 1 µM, 7x7, partner max 0.3 µM)	0.0217
C=CCn1c(=O)c2cnc(Nc3ccc(N4CCN(C)CC4)cc3)nc2n1-c1cccc(C(C)(C)O)n1 [AZD1775] + C1CN(CCC1(C(=O)N[C@@H](CCO)C2=CC=C(C=C2)Cl)N)C3=NC=NC4=C3C=CN4 [Capivasertib] (first compound max 3 µM, partner max 3 µM)	-0.0451
CN(C)CCCOc1ccc(-c2ccc3ncc4c(c3c2)n(C2CCOCC2)c(=O)n4C)cn1 [AZD0156] + C[C@@H]1COCCN1C2=NC(=NC(=C2)C3(CC3)[S@](=N)(=O)C)C4=C5C=CNC5=NC=C4 [AZD6738] (first compound max 1 µM, 7x7, partner max 10 µM)	0.0408
Cc1c2c(nn1C)CSCc1cc(n(C)n1)CSc1cc(c3ccccc3c1)OCCCc1c(C(=O)O)n(C)c3c-2c(Cl)ccc13 [AZD5991] + Cc1cc2ncnn2cc1Nc1ncc2c(n1)n(C1CCOCC1)c(=O)n2C [AZD7648] (first compound max 1 µM, 7x7, partner max 10 µM)	-0.0018
C[C@@H](Oc1cc(-c2cnn(C3CCNCC3)c2)cnc1N)c1c(Cl)ccc(F)c1Cl [Crizotinib] + CC1=C(C(=CC=C1)Cl)NC(=O)C2=CN=C(S2)NC3=CC(=NC(=N3)C)N4CCN(CC4)CCO [Dasatinib] (first compound max 10 µM, 7x7, partner max 2 µM)	0.0101

# Bliss excess of CN(CCO)CC[C@H](CSc1ccccc1)Nc1ccc(S(=O)(=O)NC(=O)c2ccc(N3CCC([C@@H](O)c4ccccc4-c4ccc(Cl)cc4)CC3)cc2)cc1S(=O)(=O)C(F)(F)F [AZD4320] + C[C@@H](Nc1cc(F)cc(F)c1)c1cc(C(=O)N(C)C)cc2c(=O)cc(N3CCOCC3)oc12 [AZD8186] (first compound max 1 µM, 7x7, partner max 3 µM) = 0.0255

# Bliss excess of CC(=O)Nc1cccc(-n2c(=O)n(C3CC3)c(=O)c3c(Nc4ccc(I)cc4F)n(C)c(=O)c(C)c32)c1 [Trametinib] + Cc1nc(-c2cn3c(n2)-c2ccc(-c4cnn(C(C)(C)C(N)=O)c4)cc2OCC3)n(C(C)C)n1 [Taselisib] (first compound max 1 µM, 7x7, partner max 10 µM) = 0.232

# Bliss excess of COc1nnc2ccc(N3CCC(c4ccc(OCCN5CCN(C)C(=O)[C@H]5C)cc4)CC3)nn12 [AZD5153] + CC1(C)CCC(CN2CCN(c3ccc(C(=O)NS(=O)(=O)c4ccc(NCC5CCOCC5)c([N+](=O)[O-])c4)c(Oc4cnc5[nH]ccc5c4)c3)CC2)=C(c2ccc(Cl)cc2)C1 [Venetoclax] (first compound max 1 µM, 7x7, partner max 1 µM) = -0.0183

# Bliss excess of CN(CCO)CC[C@H](CSc1ccccc1)Nc1ccc(S(=O)(=O)NC(=O)c2ccc(N3CCC([C@@H](O)c4ccccc4-c4ccc(Cl)cc4)CC3)cc2)cc1S(=O)(=O)C(F)(F)F [AZD4320] + Cc1cc2ncnn2cc1Nc1ncc2c(n1)n(C1CCOCC1)c(=O)n2C [AZD7648] (first compound max 1 µM, 7x7, partner max 10 µM) = 0.0476

# Bliss excess of N#Cc1cnc(Nc2cc(NC[C@H]3CNCCO3)c(C(F)(F)F)cn2)cn1 [SRA737] + O=c1[nH]cc(F)c(=O)[nH]1 [5-Fluorouracil] (first compound max 10 µM, 7x7, partner max 20 µM) = -0.0084

# Bliss excess of CN(CCO)CC[C@H](CSc1ccccc1)Nc1ccc(S(=O)(=O)NC(=O)c2ccc(N3CCC([C@@H](O)c4ccccc4-c4ccc(Cl)cc4)CC3)cc2)cc1S(=O)(=O)C(F)(F)F [AZD4320] + CC(=O)O[C@H]1C(=O)[C@@]2(C)[C@H]([C@H](OC(=O)c3ccccc3)[C@]3(O)C[C@H](OC(=O)[C@H](O)[C@@H](NC(=O)c4ccccc4)c4ccccc4)C(C)=C1C3(C)C)[C@]1(OC(C)=O)CO[C@@H]1C[C@@H]2O [Paclitaxel] (first compound max 1 µM, 7x7, partner max 3 µM) = -0.0057

# Bliss excess of NC1(C(=O)N[C@@H](CCO)c2ccc(Cl)cc2)CCN(c2ncnc3[nH]ccc23)CC1 [Capivasertib] + Cn1cnc2c(F)c(Nc3ccc(Br)cc3Cl)c(C(=O)NOCCO)cc21 [Selumetinib] (first compound max 10 µM, 7x7, partner max 10 µM) = 0.077

# Bliss excess of COc1cc2c(cc1OCCCCCOc1cc3c(cc1OC)C(=O)N1C=C(C)C[C@H]1C=N3)N=C[C@@H]1CC(C)=CN1C2=O [SG3199] + O=C(c1cc(Cc2n[nH]c(=O)c3ccccc23)ccc1F)N1CCN(C(=O)C2CC2)CC1 [Olaparib] (first compound max 0.001 µM, 7x7, partner max 10 µM) = -0.0348
